TARGET OF ASSAY: Trichoderma harzianum CBS 223.93 L-amino acid oxidase (Trichoderma harzianum, UniProt A0A2T4A4V3)
Sequence (A0A2T4A4V3 entry or part of it with the stated changes): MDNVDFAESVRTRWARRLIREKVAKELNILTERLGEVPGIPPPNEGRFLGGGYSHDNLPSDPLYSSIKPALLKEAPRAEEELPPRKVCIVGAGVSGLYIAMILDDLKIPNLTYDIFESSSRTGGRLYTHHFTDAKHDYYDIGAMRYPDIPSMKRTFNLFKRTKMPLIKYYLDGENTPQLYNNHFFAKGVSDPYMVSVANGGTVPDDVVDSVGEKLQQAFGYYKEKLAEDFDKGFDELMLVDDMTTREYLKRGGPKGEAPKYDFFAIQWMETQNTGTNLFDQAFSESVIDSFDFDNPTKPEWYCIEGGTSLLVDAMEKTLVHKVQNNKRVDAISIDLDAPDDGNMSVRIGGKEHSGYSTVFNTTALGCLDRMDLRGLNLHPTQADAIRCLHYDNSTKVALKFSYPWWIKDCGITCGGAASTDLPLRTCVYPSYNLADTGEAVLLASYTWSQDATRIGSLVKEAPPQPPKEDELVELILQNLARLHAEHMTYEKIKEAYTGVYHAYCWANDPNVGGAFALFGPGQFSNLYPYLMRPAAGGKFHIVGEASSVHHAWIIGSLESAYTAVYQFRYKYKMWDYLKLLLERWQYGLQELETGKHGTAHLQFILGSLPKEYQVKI
EXPERIMENT DESCRIPTION: Substrate specificity: specific activity and Km with various L-amino acids as substrates
Type: biochemical
RECORDED CONDITIONS: Substrate Conc. 80 mM; phosphate buffer pH 8.5, room temperature, 20 minutes
Recorded Specific Activity by entry
ASSAY METRIC: Specific Activity (U/mg)

INSERT INTO results (item_smiles, reading_unit, test_value) VALUES
  ('CSCC[C@H](N)C(=O)O', 'U/mg', 8),
  ('N[C@@H](Cc1ccccc1)C(=O)O', 'U/mg', 25),
  ('NC(=O)C[C@H](N)C(=O)O', 'U/mg', 7),
  ('CC(C)C[C@H](N)C(=O)O', 'U/mg', 16);
